- Test system: human embryonic stem cell derived neural stem cells (NSCs)
- procedure.summary: Neural stem cell proliferation assay (neurogenesis assay)
- Format: cell-based
- test.parameters: Homo sapiens, Neural stem cell, 96 h; Table 1, novel compounds; concentration at which 150% activity of control (100%) is reached; ATP levels (CellTiterGlo) after 4 days incubation
Binary label based on EC (150% of control) with cut-off 0.2 µM: below gives class 1, not below gives class 0.

Is EC (150% of control) of COc1cccc(-c2cncc3ccc(C(=O)NCc4ccccc4)nc23)c1 [Example 11] strictly below 0.2 µM?
class 1

Is EC (150% of control) of CS(=O)(=O)CCNC(=O)c1ccc2cncc(-c3ccc(F)cc3)c2n1 [Example 135] strictly below 0.2 µM?
class 1

Is EC (150% of control) of NC(=O)c1ccc2cncc(N3CCOCC3)c2n1 [Example 142] strictly below 0.2 µM?
class 0

Is EC (150% of control) of CC(NC(=O)c1ccc2cncc(-c3cc(F)c(F)c(F)c3)c2n1)C(C)(C)O (stereo not drawn) [Example 173] strictly below 0.2 µM?
class 0

Is EC (150% of control) of COc1ccccc1-c1cncc2ccc(C(=O)NCc3ccccc3)nc12 [Example 12] strictly below 0.2 µM?
class 1

Further cases:
Is EC (150% of control) of CC(C)(C)CNC(=O)c1ccc2cncc(-c3cc(F)ccc3F)c2n1 [Example 122] strictly below 0.2 µM?
class 1

Is EC (150% of control) of COCCNC(=O)c1ccc2cncc(-c3cccc(Cl)c3)c2n1 [Example 7] strictly below 0.2 µM?
class 0

Is EC (150% of control) of CS(=O)(=O)c1ccccc1CNC(=O)c1ccc2cncc(-c3ccc(Cl)cc3)c2n1 [Example 132] strictly below 0.2 µM?
class 1

Is EC (150% of control) of O=C(NCC(F)(F)F)c1ccc2cncc(-c3cccc(F)c3)c2n1 [Example 123] strictly below 0.2 µM?
class 0

Is EC (150% of control) of O=C(NCCCn1ccnc1)c1ccc2cncc(C3=CCOCC3)c2n1 [Example 43] strictly below 0.2 µM?
class 0

Is EC (150% of control) of CS(=O)(=O)CCNC(=O)c1ccc2cncc(-c3cc(F)ccc3F)c2n1 [Example 138] strictly below 0.2 µM?
class 0

Is EC (150% of control) of CS(=O)(=O)c1ccccc1-c1cncc2ccc(C(N)=O)nc12 [Example 88] strictly below 0.2 µM?
class 0

Is EC (150% of control) of NC(=O)c1ccc2cncc(-c3ccc4c(c3)OCCO4)c2n1 [Example 92] strictly below 0.2 µM?
class 1

Is EC (150% of control) of O=C(NCCCn1ccnc1)c1ccc2cncc(-c3ccncc3)c2n1 [Example 41] strictly below 0.2 µM?
class 0

Is EC (150% of control) of O=C(NCC(F)(F)F)c1ccc2cncc(-c3ccc(F)c(F)c3)c2n1 [Example 127] strictly below 0.2 µM?
class 0

* * *

- Tested on: human embryonic stem cell derived neural stem cells (NSCs)
- procedure.summary: Neural stem cell proliferation assay (neurogenesis assay)
- Format: cell-based
- test.parameters: Homo sapiens, Neural stem cell, 96 h; Table 1, novel compounds; concentration at which 150% activity of control (100%) is reached; ATP levels (CellTiterGlo) after 4 days incubation
Listing of entries alongside the reported EC (150% of control).

Completed entries (count: 4):
Data request, read-out EC (150% of control), for CC(C)(C)CNC(=O)c1ccc2cncc(-c3ccc(Cl)cc3)c2n1
0.07 µM

Data request, read-out EC (150% of control), for CS(=O)(=O)c1cccc(-c2cncc3ccc(C(N)=O)nc23)c1
0.79 µM

Data request, read-out EC (150% of control), for CC(C)(C)CNC(=O)c1ccc2cncc(-c3ccccc3F)c2n1
0.04 µM

Data request, read-out EC (150% of control), for CC(C)Oc1ccc(-c2cncc3ccc(C(N)=O)nc23)cc1
0.01 µM

Let us move to another entry and its EC (150% of control).
Data request, read-out EC (150% of control), for Cc1ccccc1-c1cncc2ccc(C(=O)NC(C)C(C)(C)O)nc12 (centres unmarked)
0.28 µM

* * *

- System: human embryonic stem cell derived neural stem cells (NSCs)
- procedure.summary: Neural stem cell proliferation assay (neurogenesis assay)
- Type: cell-based
- test.parameters: Homo sapiens, Neural stem cell, 96 h; Table 1, novel compounds; concentration at which 150% activity of control (100%) is reached; ATP levels (CellTiterGlo) after 4 days incubation
reported.property: log10 of EC (150% of control) (log10 of the value in µM)
Parameter value (number): base-10 log of EC (150% of control) in µM.

Completed entries (count: 8):
Data request, read-out log10 of EC (150% of control), for Cc1cc2cncc(-c3ccc(OC(F)(F)F)cc3)c2nc1C(N)=O [Example 154]
0.34

Data request, read-out log10 of EC (150% of control), for Cn1nccc1-c1cncc2ccc(C(N)=O)nc12 [Example 99]
0.34

Data request, read-out log10 of EC (150% of control), for COc1ccc(-c2cncc3ccc(C(=O)NCCC(F)(F)F)nc23)cc1 [Example 35]
0.24

Data request, read-out log10 of EC (150% of control), for CC(NC(=O)c1ccc2cncc(-c3ccc(Cl)nc3)c2n1)C(C)(C)O (stereo not shown) [Example 174]
-0.21

Data request, read-out log10 of EC (150% of control), for Cc1cc2cncc(-c3ccc(C#N)cc3)c2nc1C(N)=O [Example 155]
-0.15

Data request, read-out log10 of EC (150% of control), for COc1ccc(-c2cncc3ccc(C(=O)NCc4cccnc4)nc23)cc1 [Example 22]
-1.52

Data request, read-out log10 of EC (150% of control), for COc1ccccc1-c1cncc2ccc(C(=O)NCCCn3ccnc3)nc12 [Example 39]
-0.13

Data request, read-out log10 of EC (150% of control), for COc1ccc(-c2cncc3ccc(C(=O)NCCCn4nc(C)cc4C)nc23)cc1 [Example 42]
-0.60

Let us move to another entry and its log10 of EC (150% of control).
Data request, read-out log10 of EC (150% of control), for CC(NC(=O)c1ccc2cncc(-c3cccc(OCC(F)(F)F)c3)c2n1)C(C)(C)O (stereo not shown) [Example 164]
-0.12

* * *

- Test system: human embryonic stem cell derived neural stem cells (NSCs)
- procedure.summary: Neural stem cell proliferation assay (neurogenesis assay)
- Format: cell-based
- test.parameters: Homo sapiens, Neural stem cell, 96 h; Table 1, novel compounds; concentration at which 150% activity of control (100%) is reached; ATP levels (CellTiterGlo) after 4 days incubation
reported.property: EC (150% of control)
Answer with the number, then the unit.

Data request, read-out EC (150% of control), for CS(=O)(=O)CCNC(=O)c1ccc2cncc(-c3cccc(F)c3)c2n1 [Example 134]
0.22 µM

Data request, read-out EC (150% of control), for CC(C)(C)CNC(=O)c1ccc2cncc(-c3ccc(F)cc3F)c2n1 [Example 120]
0.08 µM

Let us move to another entry and its EC (150% of control).
Data request, read-out EC (150% of control), for CS(=O)(=O)CCNC(=O)c1ccc2cncc(-c3ccc(Cl)cc3)c2n1 [Example 72]
0.1 µM

* * *

- Tested on: human embryonic stem cell derived neural stem cells (NSCs)
- procedure.summary: Neural stem cell proliferation assay (neurogenesis assay)
- Format: cell-based
- test.parameters: Homo sapiens, Neural stem cell, 96 h; Table 1, novel compounds; concentration at which 150% activity of control (100%) is reached; ATP levels (CellTiterGlo) after 4 days incubation
reported.property: EC (150% of control)

Completed entries (count: 8):
Under human embryonic stem cell derived neural stem cells (NSCs): EC (150% of control) value of NC(=O)c1ccc2cncc(-c3ccccc3F)c2n1 [Example 79] ?
0.03 µM

Under human embryonic stem cell derived neural stem cells (NSCs): EC (150% of control) value of O=C(NC1CCOC1)c1ccc2cncc(-c3ccc(Cl)cc3)c2n1 (stereo not shown) [Example 60] ?
0.15 µM

Under human embryonic stem cell derived neural stem cells (NSCs): EC (150% of control) value of CC(C)Cc1cncc2ccc(C(N)=O)nc12 [Example 136] ?
0.04 µM

Under human embryonic stem cell derived neural stem cells (NSCs): EC (150% of control) value of Cc1ccccc1-c1cncc2ccc(C(N)=O)nc12 [Example 82] ?
2.05 µM

Under human embryonic stem cell derived neural stem cells (NSCs): EC (150% of control) value of CS(=O)(=O)c1ccc(CNC(=O)c2ccc3cncc(-c4ccc(F)c(F)c4)c3n2)cc1 [Example 115] ?
1.95 µM

Under human embryonic stem cell derived neural stem cells (NSCs): EC (150% of control) value of NC(=O)c1ccc2cncc(-c3cccc(N4CCOCC4)c3)c2n1 [Example 93] ?
0.21 µM

Under human embryonic stem cell derived neural stem cells (NSCs): EC (150% of control) value of CS(=O)(=O)CCNC(=O)c1ccc2cncc(-c3ccc(Cl)cc3F)c2n1 [Example 139] ?
0.06 µM

Under human embryonic stem cell derived neural stem cells (NSCs): EC (150% of control) value of CC(NC(=O)c1ccc2cncc(-c3ccc(F)cc3F)c2n1)c1ccc(S(C)(=O)=O)cc1 (stereo not shown) [Example 110] ?
0.49 µM

Further cases:
Under human embryonic stem cell derived neural stem cells (NSCs): EC (150% of control) value of NC(=O)c1ccc2cncc(-c3ccc4c(c3)OCO4)c2n1 [Example 91] ?
0.03 µM

Under human embryonic stem cell derived neural stem cells (NSCs): EC (150% of control) value of CN(C)S(=O)(=O)c1ccc(-c2cncc3ccc(C(N)=O)nc23)cc1 [Example 106] ?
0.19 µM

These entries and their values trace back to patent US9657014B2.
